Every entry's value here was drawn from paper PMC8699473.

Below, each entry is listed with its recorded Short-time stability (24h, 4°C, without daylight) Accuracy [%].
# EXPERIMENT_SUMMARY: Short-term stability in spiked pooled human plasma (bench-top, 4 °C, 56 °C)
# TEST_CONDITIONS: validation standard ULOV
EXPERIMENTAL_READOUT: Short-time stability (24h, 4°C, without daylight) Accuracy [%] (%)

1) Cc1ccc(C(=O)Nc2ccc(CN3CCN(C)CC3)c(C(F)(F)F)c2)cc1C#Cc1cnc2cccnn12 | 93.3
2) COC(=O)c1ccc2c(c1)NC(=O)/C2=C(\Nc1ccc(N(C)C(=O)CN2CCN(C)CC2)cc1)c1ccccc1 | 88.8
3) COc1cc2ncnc(Nc3ccc(F)c(Cl)c3)c2cc1OCCCN1CCOCC1 | 94.9
4) O=C(c1ccc(F)c(F)c1Nc1ccc(I)cc1F)N1CC(O)([C@@H]2CCCCN2)C1 | 97.5
5) CCN(CC)CCNC(=O)c1c(C)[nH]c(/C=C2\C(=O)Nc3ccc(F)cc32)c1C | 106.4
6) C=CC(=O)Nc1cc(Nc2nccc(-c3cn(C)c4ccccc34)n2)c(OC)cc1N(C)CCN(C)C | 86.7
7) C[C@H]1Oc2cc(cnc2N)-c2c(nn(C)c2C#N)CN(C)C(=O)c2ccc(F)cc21 | 97.0
8) COC(=O)N[C@@H](C)CNc1nccc(-c2cn(C(C)C)nc2-c2cc(Cl)cc(NS(C)(=O)=O)c2F)n1 | 98.5

###

# EXPERIMENT_SUMMARY: Long-term stability in spiked pooled human plasma
# TEST_CONDITIONS: validation standard MOV
// reported Long-term stability, 6 weeks, 4°C, without daylight Accuracy [%] for each item listed
EXPERIMENTAL_READOUT: Long-term stability, 6 weeks, 4°C, without daylight Accuracy [%] (%)

1) COc1cc2ncnc(Nc3ccc(F)c(Cl)c3)c2cc1OCCCN1CCOCC1 | 105.7
2) CNC(=O)c1ccccc1Sc1ccc2c(/C=C/c3ccccn3)n[nH]c2c1 | 100.5
3) Nc1cccc2c1C(=O)N(C1CCC(=O)NC1=O)C2=O (stereo not shown) [Pomalidomide] | 15.7
4) CC(=O)Nc1cccc(-n2c(=O)n(C3CC3)c(=O)c3c(Nc4ccc(I)cc4F)n(C)c(=O)c(C)c32)c1 | 103.9
5) O=C1CN2Cc3c(ccc(Cl)c3Cl)N=C2N1 [Anagrelide] | 103.7
6) CNC(=O)c1ccc(N2C(=S)N(c3cnc(C#N)c(C(F)(F)F)c3)C(=O)C23CCC3)cc1F [Apalutamide] | 54.9
7) Cc1cn(-c2cc(NC(=O)c3ccc(C)c(Nc4nccc(-c5cccnc5)n4)c3)cc(C(F)(F)F)c2)cn1 | 101.7

###

# EXPERIMENT_SUMMARY: Long-term stability in spiked pooled human plasma
# TEST_CONDITIONS: validation standard 2xLLOV
EXPERIMENTAL_READOUT: Long-term stability, 2 month, -20°C Accuracy [%] (%)

1) CN(C)C/C=C/C(=O)Nc1cc2c(Nc3ccc(F)c(Cl)c3)ncnc2cc1O[C@H]1CCOC1 | 72.1
2) COc1cc2ncnc(Nc3ccc(F)c(Cl)c3)c2cc1OCCCN1CCOCC1 | 105.6
3) CCN1CCN(Cc2ccc(Nc3ncc(F)c(-c4cc(F)c5nc(C)n(C(C)C)c5c4)n3)nc2)CC1 | 109.1
4) Nc1cccc2c1C(=O)N(C1CCC(=O)NC1=O)C2=O (centres unmarked) [Pomalidomide] | 107.3
5) CCCS(=O)(=O)Nc1ccc(F)c(C(=O)c2c[nH]c3ncc(-c4ccc(Cl)cc4)cc23)c1F | 110.6
